# PROTOCOL_DETAILS: Refractive index
# Format: physicochemical
# MEASUREMENT_SETUP: selected SFA's, neat
READOUT_NAME: Refractive index

Solved cases (2 shown):
CCCCCC(F)(F)C(F)(F)C(F)(F)C(F)(F)F	1,3204
CCCCCCCCC(F)(F)C(F)(F)C(F)(F)C(F)(F)C(F)(F)C(F)(F)F	1,3432

Task: Please look up its Refractive index: `CCCCC(F)(F)C(F)(F)C(F)(F)C(F)(F)C(F)(F)C(F)(F)F`
Result: 1,306

Task: Please look up its Refractive index: `CCCCCCCCCC(F)(F)C(F)(F)C(F)(F)C(F)(F)C(F)(F)C(F)(F)F`
Result: 1,3494

Task: Please look up its Refractive index: `CCC(F)(F)C(F)(F)C(F)(F)C(F)(F)C(F)(F)C(F)(F)F`
Result: 1,295

* * *

# PROTOCOL_DETAILS: Refractive index
# Format: physicochemical
# MEASUREMENT_SETUP: selected SFA's, neat
READOUT_NAME: Refractive index

Task: Please look up its Refractive index: CCCCCCCCC(F)(F)C(F)(F)C(F)(F)C(F)(F)F [Example F4H8]
Result: 1,348

Task: Please look up its Refractive index: CCCCCCC(F)(F)C(F)(F)C(F)(F)C(F)(F)C(F)(F)C(F)(F)F [Example F6H6]
Result: 1,3224

Task: Please look up its Refractive index: CCCCC(F)(F)C(F)(F)C(F)(F)C(F)(F)F [Example F4H4]
Result: 1,308

Task: Please look up its Refractive index: CCCCCCC(F)(F)C(F)(F)C(F)(F)C(F)(F)F [Example F4H6]
Result: 1,334

Task: Please look up its Refractive index: CCCCCCCC(F)(F)C(F)(F)C(F)(F)C(F)(F)C(F)(F)C(F)(F)F [Example F6H7]
Result: 1,3366

Task: Please look up its Refractive index: CCCCCCCC(F)(F)C(F)(F)C(F)(F)C(F)(F)F [Example F4H7]
Result: 1,3357
